target: EBOV sGP (Zaire ebolavirus (EBOV), UniProt P60170); assay: filter binding; conditions: protein: recombinant; tags: C-terminal thrombin site + 6xHis; chain copies: 2; label: 5' 32P
property-measured: Kd (nM)
Write it as a number; the unit nM goes unstated.

Study these solved cases before continuing.
6011 (ssDNA) DNA: GCCTGTTGTGAGCCTCCTGTCGAACAACCACTCATATCTACTACATGACTTGCTCCATTCTGTTCTTTCTCTACGCATTGAGCGTTTATTCTTGTCTCCC
8.5
6012 (ssDNA) DNA: GCCTGTTGTGAGCCTCCTGTCGAACGTATTTCTTGCTTCCTTCCTTGCCGCGCACATTGCAGTATAAGTACCTGTCGTTGAGCGTTTATTCTTGTCTCCC
27

Quick note, Kd for 70SGP2A (ssDNA) DNA: GCCTGTTGTGAGCCTCCTGTCGAACAACCACTCATATCTACTACATGACTTGCTCCATTCTGTTCTTTCT landed at 27
